Assay: HT29 colon tumor cell growth inhibition, primary screen, imaging, high content imaging, 48 h, CellTiter-Glo (AID 771)
Settings: HCS imaging cell count, at 10 µM
Among all 3,300 compounds or so, about 55 (2%) were called active.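 How the source made its calls: active means growth inhibition above 90%, meaning viable cell count by imaging cut by more than 90% versus vehicle controls; inactive means growth inhibition below 90%.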 Only a selection was taken, and actives are over-represented in it overall.
Labels: Y for active, N for inactive

1. CCCn1nnc(NC(=O)c2cc(Br)cc(Br)c2OC)n1	N
2. COc1cccc(NC(=O)CSC2=C(C#N)C(c3ccco3)C3=C(CCCC3=O)N2)c1 (configuration not stated)	N
3. Clc1ccc2[nH]c3c(NCCN4CCOCC4)ncnc3c2c1	Y
4. CCN(CC)CCNc1ncnc2c1[nH]c1ccc(OC)cc12	N
5. Cc1ccc2[nH]c3c(NCCN4CCOCC4)ncnc3c2c1	N
6. CC1(C)Cc2nc(N)c(C(=O)NCCO)cc2CO1	N
7. CCCOc1ccc(/C(O)=C2/C(=O)C(=O)N(CCN3CCOCC3)C2c2ccccc2)cc1 (configuration not stated)	N

----------
Assay: HT29 colon tumor cell growth inhibition, primary screen, imaging, high content imaging, 48 h, CellTiter-Glo (AID 771)
Conditions: HCS imaging cell count, measured here: ATP CellTiter-Glo viability inhibition, at 10 µM, stronger effect = higher value
Out of some 3,300 compounds screened, about 55 (2%) were called active. This excerpt belongs to a sample that is enriched for actives.
assayMetric: growth inhibition (%)

1. CCOC(=O)c1sc2c(c1C)c(=O)c(C(=O)OCC)cn2CC	-21.7
2. COc1ccc(OC)c(C(O)c2coc3ccc(O)c(CN4CCOCC4)c23)c1 (centres undefined)	-6.82
3. Cc1cc(=O)oc(C)c1C(=O)Nc1ccc2nsnc2c1	-17.1
4. CC(=O)/C=C(\C)NCCNc1c(F)c(F)c(CO)c(F)c1F	0.5
5. CCCCCCc1cc2cc(-c3nnc(-c4ccccc4O)o3)c(=O)oc2cc1O	3.73
6. CC/C(C)=C1\SC(N2CCN(C(C)=O)CC2)=NC1=O	-28.4
7. CCc1[nH]nc2c1C(c1ccc(Br)s1)C(C#N)=C(N)O2 (centres undefined)	16.8
8. C=CCN(C(=O)CCC(=O)O)C1CC(=O)N(c2ccc(OC)cc2)C1=O (centres undefined)	-24.9
9. COC(=O)c1[nH]c2cc(OC)ccc2c1NC(=O)CN1CCN(c2cccc(C)c2)C(C)C1 (centres undefined)	75.4
10. CCn1nnc(C(=O)O)c1C(=O)O	-5.53
11. COc1cc(-c2nn3c(-c4cccnc4)nnc3s2)cc(OC)c1OC	-33.4
12. CCN(CC)c1ccc2cc(-c3nnc(-c4ccncc4)o3)c(=O)oc2c1	-8.56
13. O=C(NCCCn1ccnc1)c1cccnc1	-30.1
14. Cc1ccc(-c2nn(C)c(=O)c3ccccc23)cc1CNC(=O)CSc1nc2ccccc2o1	-4.16

----------
A collection of compounds and their measured growth inhibition
Assay: HT29 colon tumor cell growth inhibition, primary screen, imaging, high content imaging, 48 h, CellTiter-Glo (AID 771)
Settings: HCS imaging cell count, at 10 µM, stronger effect = higher value
Screen size: about 3,300 compounds; about 55 (2%) were called active. This is one part of a sample in which actives are shown more often than they occur.
assayMetric: growth inhibition (%)

1. COC(=O)c1cc(Br)c(=O)n(Cc2ccco2)c1	48.5
2. COc1ccc(-n2ncc3c(Nc4cccc(C)c4)ncnc32)cc1	30.6
3. Cn1c(=NCC(O)COc2ccccc2)sc2ccccc21 (centres undefined)	25.5
4. C=CCn1c(N)c(C(=O)Nc2ccccc2)c2nc3ccccc3nc21	90.9
5. CCOC(=O)C1=C(C)NC(SCC(=O)Nc2nc(C)cs2)=C(C#N)C1c1cccs1 (centres undefined)	95.4
6. c1ccc(-c2nc(NCC3CCCO3)c3ccccc3n2)nc1 (centres undefined)	16.9
7. N#CC12CCCCC1CC1CCCCC1(C#N)N2Cc1cccnc1 (centres undefined)	20.9
8. COC(=O)c1[nH]c2cc(OC)ccc2c1NC(=O)CN1CCN(c2cccc(C)c2)C(C)C1 (centres undefined)	92.4
9. N#CC1(c2ccccc2)CCC(=NO)CC1 (centres undefined)	-54.8
10. CCOC(=O)C1=C(C)N=C2SC(C)C(=O)N2C1c1ccc(OC(C)=O)c(OC)c1 (centres undefined)	42.7
11. COC(=O)c1[nH]c2cc(OC)ccc2c1NC(=O)CCN1CCCC(C)(C)C1	5.81
12. COCc1cc(=O)[nH]c(Nc2nc3ccccc3o2)n1	89.2
13. CCCc1[nH]nc2c1C(c1cccc(OC)c1)C(C#N)=C(N)O2 (centres undefined)	55.3
14. C#CCSC1=C(C#N)C(c2cccs2)C(C(=O)OCC)=C(C)N1 (centres undefined)	-11.7
